Source: paper PMC10590056

- Tested on: KYSE-30 cells
- Test Description: MTT assay for cell proliferation, KYSE-30
- Type: cell-based
- Set-up: key: inhibition rate = 1 - mean A490 sample/mean A490 control (fraction)
- Measurement Conditions: KYSE-30, given as fraction; second of three experiments
So I've got a bunch of molecules here, and I need their Inhibitory rate values.
Just the number.

Qu. Give the measured Inhibitory rate of COc1c2n(cc(C(=O)Nc3cccc(-c4cn(-c5cccc(C(F)(F)F)c5)nn4)c3)c1=O)C[C@H]1OC[C@H](C)N1C2=O .
Ans. 0.6049

Qu. Give the measured Inhibitory rate of COc1c2n(cc(C(=O)Nc3cccc(-c4cn(-c5cc(C(F)(F)F)cc(C(F)(F)F)c5)nn4)c3)c1=O)C[C@H]1OC[C@H](C)N1C2=O .
Ans. 0.6669

Qu. Give the measured Inhibitory rate of CCc1ccccc1-n1cc(-c2cccc(NC(=O)c3cn4c(c(OC)c3=O)C(=O)N3[C@@H](C)CO[C@@H]3C4)c2)nn1 .
Ans. 0.3924

Qu. Give the measured Inhibitory rate of COc1c2n(cc(C(=O)Nc3cccc(-c4cn(-c5cccc(Cl)c5)nn4)c3)c1=O)CC1OCC(C)N1C2=O (centres unmarked) .
Ans. 0.6074

Qu. Give the measured Inhibitory rate of COc1c2n(cc(C(=O)Nc3cccc(-c4cn(-c5c(C)cc(C)cc5C)nn4)c3)c1=O)C[C@H]1OC[C@H](C)N1C2=O .
Ans. 0.5295

====

So I've got a bunch of molecules here, and I need their Inhibitory rate values.
- System: KYSE-30 cells
- Test Description: MTT assay for cell proliferation, KYSE-30
- Type: cell-based
- Set-up: key: inhibition rate = 1 - mean A490 sample/mean A490 control (fraction)
- Measurement Conditions: KYSE-30, given as fraction; first of three experiments
- Description: HepG2, HeLa, MCF-7, and KYSE-30 cells were grown in a humidified incubator at 37°C with 5% CO2 in DMEM supplemented with 10% fetal bovine serum (FBS), […] streptomycin, and 100 U/mL penicillin. When HepG2 cells reached 80% confluence, they were treated with 1 mL of trypsin and resuspended at a density of 10^5 cells/mL. […] The absorbance values were measured at 490 nm using an enzyme-linked detector. […]
Just the number.

Qu. Give the measured Inhibitory rate of COc1c2n(cc(C(=O)Nc3cccc(-c4cn(-c5cc(C(F)(F)F)cc(C(F)(F)F)c5)nn4)c3)c1=O)C[C@H]1OC[C@H](C)N1C2=O .
Ans. 0.654

Qu. Give the measured Inhibitory rate of COc1c2n(cc(C(=O)Nc3cccc(-c4cn(-c5ccc(C(F)(F)F)cc5)nn4)c3)c1=O)C[C@H]1OC[C@H](C)N1C2=O .
Ans. 0.3493

Qu. Give the measured Inhibitory rate of COc1c2n(cc(C(=O)Nc3cccc(-c4cn(-c5cccc(C(F)(F)F)c5)nn4)c3)c1=O)C[C@H]1OC[C@H](C)N1C2=O .
Ans. 0.6038

Qu. Give the measured Inhibitory rate of COc1c2n(cc(C(=O)Nc3cccc(-c4cn(-c5cccc(Cl)c5)nn4)c3)c1=O)CC1OCC(C)N1C2=O (stereo not shown) .
Ans. 0.5172

Qu. Give the measured Inhibitory rate of COc1c2n(cc(C(=O)Nc3cccc(-c4cn(-c5cc(C(F)(F)F)ccc5C(F)(F)F)nn4)c3)c1=O)CC1OCC(C)N1C2=O (stereo not shown) .
Ans. 0.2649

Qu. Give the measured Inhibitory rate of COc1c2n(cc(C(=O)Nc3cccc(-c4cn(-c5ccccc5Cl)nn4)c3)c1=O)CC1OCC(C)N1C2=O (stereo not shown) .
Ans. 0.57

Qu. Give the measured Inhibitory rate of CCc1ccccc1-n1cc(-c2cccc(NC(=O)c3cn4c(c(OC)c3=O)C(=O)N3[C@@H](C)CO[C@@H]3C4)c2)nn1 .
Ans. 0.508

====

- Tested on: HeLa cells
- Test Description: MTT assay for cell proliferation, HeLa
- Type: cell-based
- Measurement Conditions: preliminary screening, Hela, 16 μM, 48 h, mean±SD; unit not given
- Protocol: HepG2, HeLa, MCF-7, and KYSE-30 cells were grown in a humidified incubator at 37°C with 5% CO2 in DMEM supplemented with 10% fetal bovine serum (FBS), […] streptomycin, and 100 U/mL penicillin. When HepG2 cells reached 80% confluence, they were treated with 1 mL of trypsin and resuspended at a density of 10^5 cells/mL. […] The absorbance values were measured at 490 nm using an enzyme-linked detector. […]
Threshold 50: Inhibition rate (16μM), 48 h, Hela strictly smaller gives criterion met, otherwise criterion not met.

Qu. Dear colleague, could you confirm whether Inhibition rate (16μM), 48 h, Hela of COc1c2n(cc(C(=O)Nc3cccc(-c4cn(-c5ccccc5I)nn4)c3)c1=O)CC1OCC(C)N1C2=O (stereo not shown) [KJ-15] falls below 50? Thanks.
Ans. criterion met

Qu. Dear colleague, could you confirm whether Inhibition rate (16μM), 48 h, Hela of COc1c2n(cc(C(=O)Nc3cccc(-c4cn(-c5cccc(C(F)(F)F)c5)nn4)c3)c1=O)C[C@H]1OC[C@H](C)N1C2=O [KJ-8] falls below 50? Thanks.
Ans. criterion not met

Qu. Dear colleague, could you confirm whether Inhibition rate (16μM), 48 h, Hela of COc1c2n(cc(C(=O)Nc3cccc(-c4cn(-c5ccccc5)nn4)c3)c1=O)CC1OCC(C)N1C2=O (stereo not shown) [KJ-16] falls below 50? Thanks.
Ans. criterion met

Qu. Dear colleague, could you confirm whether Inhibition rate (16μM), 48 h, Hela of COc1ccccc1-n1cc(-c2cccc(NC(=O)c3cn4c(c(OC)c3=O)C(=O)N3[C@@H](C)CO[C@@H]3C4)c2)nn1 [KJ-7] falls below 50? Thanks.
Ans. criterion met

Qu. Dear colleague, could you confirm whether Inhibition rate (16μM), 48 h, Hela of COc1c2n(cc(C(=O)Nc3cccc(-c4cn(-c5cccc(F)c5)nn4)c3)c1=O)C[C@H]1OC[C@H](C)N1C2=O [KJ-6] falls below 50? Thanks.
Ans. criterion not met

Qu. Dear colleague, could you confirm whether Inhibition rate (16μM), 48 h, Hela of CCc1ccccc1-n1cc(-c2cccc(NC(=O)c3cn4c(c(OC)c3=O)C(=O)N3[C@@H](C)CO[C@@H]3C4)c2)nn1 [KJ-4] falls below 50? Thanks.
Ans. criterion met

Qu. Dear colleague, could you confirm whether Inhibition rate (16μM), 48 h, Hela of COc1c2n(cc(C(=O)Nc3cccc(-c4cn(-c5cccc(Br)c5)nn4)c3)c1=O)CC1OCC(C)N1C2=O (stereo not shown) [KJ-18] falls below 50? Thanks.
Ans. criterion not met

====

- Test system: MCF-7 cells
- Test Description: MTT assay for cell proliferation, MCF-7
- Type: cell-based
- Set-up: key: inhibition rate = 1 - mean A490 sample/mean A490 control (fraction)
- Measurement Conditions: given as fraction; second of three experiments
Label t when Inhibitory rate >= 0.5; otherwise f.

Qu. Record COc1c2n(cc(C(=O)Nc3cccc(-c4cn(-c5ccccc5Br)nn4)c3)c1=O)CC1OCC(C)N1C2=O (stereo not drawn) ; criterion: Inhibitory rate no lower than 0.5. Met?
Ans. f

Qu. Record COc1c2n(cc(C(=O)Nc3cccc(-c4cn(-c5cccc(Br)c5)nn4)c3)c1=O)CC1OCC(C)N1C2=O (stereo not drawn) ; criterion: Inhibitory rate no lower than 0.5. Met?
Ans. t

Qu. Record COc1c2n(cc(C(=O)Nc3cccc(-c4cn(-c5ccccc5F)nn4)c3)c1=O)C[C@H]1OC[C@H](C)N1C2=O ; criterion: Inhibitory rate no lower than 0.5. Met?
Ans. f

Qu. Record COc1c2n(cc(C(=O)Nc3cccc(-c4cn(-c5cc(C(F)(F)F)ccc5C(F)(F)F)nn4)c3)c1=O)CC1OCC(C)N1C2=O (stereo not drawn) ; criterion: Inhibitory rate no lower than 0.5. Met?
Ans. f

Qu. Record COc1c2n(cc(C(=O)Nc3cccc(-c4cn(-c5ccccc5)nn4)c3)c1=O)CC1OCC(C)N1C2=O (stereo not drawn) ; criterion: Inhibitory rate no lower than 0.5. Met?
Ans. f

Qu. Record COc1ccccc1-n1cc(-c2cccc(NC(=O)c3cn4c(c(OC)c3=O)C(=O)N3[C@@H](C)CO[C@@H]3C4)c2)nn1 ; criterion: Inhibitory rate no lower than 0.5. Met?
Ans. f

Qu. Record COc1c2n(cc(C(=O)Nc3cccc(-c4cn(-c5ccccc5Cl)nn4)c3)c1=O)CC1OCC(C)N1C2=O (stereo not drawn) ; criterion: Inhibitory rate no lower than 0.5. Met?
Ans. t

Qu. Record COc1c2n(cc(C(=O)Nc3cccc(-c4cn(-c5ccccc5OC(F)(F)F)nn4)c3)c1=O)C[C@H]1OC[C@H](C)N1C2=O ; criterion: Inhibitory rate no lower than 0.5. Met?
Ans. t

Qu. Record COc1c2n(cc(C(=O)Nc3cccc(-c4cn(-c5ccccc5I)nn4)c3)c1=O)CC1OCC(C)N1C2=O (stereo not drawn) ; criterion: Inhibitory rate no lower than 0.5. Met?
Ans. f
